- Test system: HOP-62 NSCLC
- EXPERIMENT: NCI-60 one-dose screen, 48 h (100 = growth as untreated, 0 = no growth, -100 = all killed)
- CONDITION_SUMMARY: 10 µM unless noted
Compounds without any hit were thinned out: in the full panel of roughly 83,000, 20% have a hit.
PARAMETER: growth (%)
Lab book: enter the figure in %, no units written.

# input Can you look up the measured growth of COc1cccc(-c2cc3c(O)cc(C#N)cc3[nH]2)c1 for me?
# output 108

# input Can you look up the measured growth of Cc1nc2ncccc2nc1Nc1ccc(S(=O)(=O)Nc2ccccn2)cc1 for me?
# output 97

# input Can you look up the measured growth of Cn1ncc2c(Sc3ccc(Cl)cc3)ncnc21 for me?
# output 111

# input Can you look up the measured growth of c1ccc(-c2cn(-c3ccccc3)c(-c3ccccc3)n2)cc1 for me?
# output 82

# input Can you look up the measured growth of CC(C)c1ccc2occ(C=C3C(=O)NC(=O)NC3=O)c(=O)c2c1 for me?
# output 101

# input Can you look up the measured growth of O=C(NS(=O)(=O)c1ccccc1)n1cc(-c2ccncc2)c(-c2ccc(Cl)c(O)c2)n1 for me?
# output 119

# input Can you look up the measured growth of COc1cc(/C=C/C(=O)/C=C/c2cc(OC)c3c(c2)OCO3)cc2c1OCO2 for me?
# output 106

# input Can you look up the measured growth of CCN1CCN(c2nc(NNC(=O)c3ccccc3)nc(N3CCN(C(c4ccccc4)c4ccccc4)CC3)n2)CC1 for me?
# output 79.7

# input Can you look up the measured growth of O=C(O)C1CCCCN1c1nc(Cl)nc(Cl)n1 (stereo not given) for me?
# output 101

# input Can you look up the measured growth of CCC(=O)Oc1ccc(/C(=C(/C)Cc2cccc(OC)c2)c2ccc(OCCN(C)C)cc2)cc1 for me?
# output 108

# input Can you look up the measured growth of CN(C)c1oc(C2OC2c2ccccc2)nc1C#N (stereo not given) for me?
# output 75.6

# input Can you look up the measured growth of COc1cc(-c2nn(-c3cccc(NC(=O)Nc4cc(C(F)(F)F)cc(C(F)(F)F)c4)c3)cc2-c2ccncc2)ccc1Cl for me?
# output -77.6

# input Can you look up the measured growth of N/C(=N\C(N)=N\c1nc2ccccc2s1)c1cccc(Br)c1 for me?
# output -0.459

# input Can you look up the measured growth of COc1ccc(/C(C#N)=C/c2cc(OC)c(OC)c(OC)c2)cc1 for me?
# output 46.7

# input Can you look up the measured growth of Cc1cc(N/N=C/c2nc(-c3ccccc3)oc2C)c2cc(Cl)ccc2n1 for me?
# output 10.5

# input Can you look up the measured growth of c1ccc(-c2nc(N3CCNCC3)c3nc(-c4ccccc4)oc3n2)cc1 for me?
# output -78.2

# input Can you look up the measured growth of Cn1c(=O)c2[nH]c(C3CC=CCC3)nc2n(C)c1=O (stereo not given) for me?
# output 90.5

# input Can you look up the measured growth of N=C(N)c1ccc(-c2ccc(-c3ccc4ccccc4c3)s2)cc1 for me?
# output 97.6

# input Can you look up the measured growth of N[C@H]1CN(C(=O)c2cc3cc(Br)c(F)c(F)c3[nH]2)C[C@@H]1O for me?
# output 99.9

# input Can you look up the measured growth of O=C1Nc2ccc3c(c2/C1=C\c1cc2c(cc1Br)OCO2)OCO3 for me?
# output -21.3

# input Can you look up the measured growth of COc1ccc(-c2cc(-c3ccccc3)nc(SCCCC(=O)NO)n2)cc1OC for me?
# output 5.03

# input Can you look up the measured growth of CN(C)c1ncnc2c1ccn2C1OC(CO)C(O)C1O (stereo not given) for me?
# output 50.8

# input Can you look up the measured growth of O=C(O)COc1ccc(-c2cssc2=S)cc1 for me?
# output 104

# input Can you look up the measured growth of Nc1cccc(-c2nc3sccn3c2-c2ccnc(NCCCNS(=O)(=O)c3cccc4ccccc34)n2)c1 for me?
# output 64.3

# input Can you look up the measured growth of Nc1ccc(C(=O)CSc2nc3ccccc3[nH]2)cc1 for me?
# output 111

# input Can you look up the measured growth of FC(F)(F)c1cccc(-c2cn3c(ccc4ccccc43)n2)c1 for me?
# output 76.7

# input Can you look up the measured growth of FC(F)(F)c1ccccc1-c1cn2c(ccc3ccccc32)n1 for me?
# output 60.4

# input Can you look up the measured growth of Cc1cc(N)n(S(=O)(=O)c2oc(-c3ccccc3)nc2C#N)n1 for me?
# output 95

# input Can you look up the measured growth of C=C1CCC[C@]2(C)CCC[C@H](C)[C@@H](OC(C)=O)[C@@H]3OC(=O)C(=C)[C@@H]3C[C@H]1O2 for me?
# output 99.9

# input Can you look up the measured growth of O=C1C2(c3ccccc3)C(c3ccccc3)=C(c3ccccc3)C1(c1ccccc1)C1CC=CC12 (stereo not given) for me?
# output 102
